# credit: ChEMBL document CHEMBL1155459

- test_method_notes: Inhibition of Plasmodium falciparum falcipain-2 after 12 hrs by fluorescence spectroscopy-based on-bead assay
- Set-up: concentration or dose not given beside the values
- condition_parameters: concentration not given here
Peptide text beside a SMILES is read from it.
Below, each of the compounds is paired with its reported inhibition value.

compound	unit	inhibition
CC(C)[C@H](NC(=O)[C@H](C)NC(=O)[C@H](Cc1ccccc1)NC(=O)[C@H](C)NC(=O)/C=C/C(=O)NCC(=O)NCC(=O)N[C@@H](Cc1ccccc1)C(=O)O)C(N)=O (HELM PEPTIDE1{[O=C(/C=C/C(=O)[*:2])NCC(=O)NCC(=O)N[C@@H](Cc1ccccc1)C(=O)O].A.F.A.V.[am]}$$$$V2.0)	%	44
CC(C)[C@H](NC(=O)[C@H](C)NC(=O)[C@@H](NC(=O)[C@H](CC(N)=O)NC(=O)/C=C/C(=O)N[C@@H](C)C(=O)NCC(=O)N[C@@H](Cc1ccccc1)C(=O)O)C1CCCCC1)C(N)=O (HELM PEPTIDE1{[C[C@H](NC(=O)/C=C/C(=O)[*:2])C(=O)NCC(=O)N[C@@H](Cc1ccccc1)C(=O)O].N.[O=C([C@@H](N[*:1])C1CCCCC1)[*:2]].A.V.[am]}$$$$V2.0)	%	45
CC[C@H](C)[C@H](NC(=O)[C@H](CNC(C)=O)NC(=O)/C=C/C(=O)NCC(=O)NCC(=O)N[C@@H](Cc1ccccc1)C(=O)O)C(=O)N[C@@H](CC(C)C)C(=O)N[C@H](C(N)=O)C(C)C (HELM PEPTIDE1{[O=C(/C=C/C(=O)[*:2])NCC(=O)NCC(=O)N[C@@H](Cc1ccccc1)C(=O)O].[O=C([C@H](CN[*:3])N[*:1])[*:2]].I.L.V.[am]}|PEPTIDE2{[ac]}$PEPTIDE1,PEPTIDE2,2:R3-1:R2$$$V2.0)	%	33
CC(C)C[C@H](NC(=O)[C@H](CCC(N)=O)NC(=O)/C=C/C(=O)NCC(=O)NCC(=O)N[C@@H](Cc1ccccc1)C(=O)O)C(=O)N[C@@H](C)C(=O)N[C@H](C(N)=O)C(C)C (HELM PEPTIDE1{[O=C(/C=C/C(=O)[*:2])NCC(=O)NCC(=O)N[C@@H](Cc1ccccc1)C(=O)O].Q.L.A.V.[am]}$$$$V2.0)	%	40
CC[C@H](C)[C@H](NC(=O)[C@H](Cc1ccccc1)NC(=O)/C=C/C(=O)NCC(=O)NCC(=O)N[C@@H](Cc1ccccc1)C(=O)O)C(=O)N[C@@H](C)C(=O)N[C@H](C(N)=O)C(C)C (HELM PEPTIDE1{[O=C(/C=C/C(=O)[*:2])NCC(=O)NCC(=O)N[C@@H](Cc1ccccc1)C(=O)O].F.I.A.V.[am]}$$$$V2.0)	%	52
CC(C)[C@H](NC(=O)[C@@H](NC(=O)[C@@H](NC(=O)[C@H](Cc1ccccc1)NC(=O)/C=C/C(=O)N[C@@H](C)C(=O)NCC(=O)N[C@@H](Cc1ccccc1)C(=O)O)c1ccccc1)C(C)C)C(N)=O (HELM PEPTIDE1{[C[C@H](NC(=O)/C=C/C(=O)[*:2])C(=O)NCC(=O)N[C@@H](Cc1ccccc1)C(=O)O].F.[Phg].V.V.[am]}$$$$V2.0)	%	58

----------
- test_method_notes: Inhibition of Plasmodium falciparum falcipain-2 after 12 hrs by fluorescence spectroscopy-based on-bead assay
- Parameters: concentration or dose not given beside the values
- condition_parameters: concentration not given here
Peptide text beside a SMILES is read from it.
Tick Yes if inhibition is 40% or greater. Tick No if inhibition is less than 40%.

molecule	category
CC[C@H](C)[C@H](NC(=O)[C@H](C)NC(=O)/C=C/C(=O)N[C@@H](C)C(=O)NCC(=O)N[C@@H](Cc1ccccc1)C(=O)O)C(=O)N[C@@H](CC(C)C)C(=O)N[C@H](C(N)=O)C(C)C (HELM PEPTIDE1{[C[C@H](NC(=O)/C=C/C(=O)[*:2])C(=O)NCC(=O)N[C@@H](Cc1ccccc1)C(=O)O].A.I.L.V.[am]}$$$$V2.0)	Yes
CC(C)[C@H](NC(=O)[C@@H](NC(=O)[C@@H](NC(=O)[C@H](C)NC(=O)/C=C/C(=O)N[C@@H](C)C(=O)NCC(=O)N[C@@H](Cc1ccccc1)C(=O)O)C1CCCCC1)C(C)C)C(N)=O (HELM PEPTIDE1{[C[C@H](NC(=O)/C=C/C(=O)[*:2])C(=O)NCC(=O)N[C@@H](Cc1ccccc1)C(=O)O].A.[O=C([C@@H](N[*:1])C1CCCCC1)[*:2]].V.V.[am]}$$$$V2.0)	Yes
CC(=O)NC[C@H](NC(=O)/C=C/C(=O)N[C@@H](C)C(=O)NCC(=O)N[C@@H](Cc1ccccc1)C(=O)O)C(=O)N[C@@H](CC(C)C)C(=O)N[C@@H](C)C(=O)N[C@H](C(N)=O)C(C)C (HELM PEPTIDE1{[C[C@H](NC(=O)/C=C/C(=O)[*:2])C(=O)NCC(=O)N[C@@H](Cc1ccccc1)C(=O)O].[O=C([C@H](CN[*:3])N[*:1])[*:2]].L.A.V.[am]}|PEPTIDE2{[ac]}$PEPTIDE1,PEPTIDE2,2:R3-1:R2$$$V2.0)	No
CC[C@H](C)[C@H](NC(=O)[C@H](CCC(N)=O)NC(=O)/C=C/C(=O)N[C@@H](C)C(=O)NCC(=O)N[C@@H](Cc1ccccc1)C(=O)O)C(=O)N[C@@H](C)C(=O)N[C@H](C(N)=O)C(C)C (HELM PEPTIDE1{[C[C@H](NC(=O)/C=C/C(=O)[*:2])C(=O)NCC(=O)N[C@@H](Cc1ccccc1)C(=O)O].Q.I.A.V.[am]}$$$$V2.0)	Yes
CC(C)C[C@H](NC(=O)[C@H](Cc1ccccc1)NC(=O)/C=C/C(=O)NCC(=O)NCC(=O)N[C@@H](Cc1ccccc1)C(=O)O)C(=O)N[C@@H](CC(C)C)C(=O)N[C@H](C(N)=O)C(C)C (HELM PEPTIDE1{[O=C(/C=C/C(=O)[*:2])NCC(=O)NCC(=O)N[C@@H](Cc1ccccc1)C(=O)O].F.L.L.V.[am]}$$$$V2.0)	Yes
CC(=O)NC[C@H](NC(=O)/C=C/C(=O)NCC(=O)NCC(=O)N[C@@H](Cc1ccccc1)C(=O)O)C(=O)N[C@@H](Cc1ccccc1)C(=O)N[C@H](C(=O)N[C@H](C(N)=O)C(C)C)C(C)C (HELM PEPTIDE1{[O=C(/C=C/C(=O)[*:2])NCC(=O)NCC(=O)N[C@@H](Cc1ccccc1)C(=O)O].[O=C([C@H](CN[*:3])N[*:1])[*:2]].F.V.V.[am]}|PEPTIDE2{[ac]}$PEPTIDE1,PEPTIDE2,2:R3-1:R2$$$V2.0)	Yes
CC(C)[C@H](NC(=O)[C@@H](NC(=O)[C@@H](NC(=O)[C@H](CCC(N)=O)NC(=O)/C=C/C(=O)NCC(=O)NCC(=O)N[C@@H](Cc1ccccc1)C(=O)O)c1ccccc1)C(C)C)C(N)=O (HELM PEPTIDE1{[O=C(/C=C/C(=O)[*:2])NCC(=O)NCC(=O)N[C@@H](Cc1ccccc1)C(=O)O].Q.[Phg].V.V.[am]}$$$$V2.0)	Yes
CC(C)C[C@H](NC(=O)[C@H](CCC(N)=O)NC(=O)/C=C/C(=O)NCC(=O)NCC(=O)N[C@@H](Cc1ccccc1)C(=O)O)C(=O)N[C@@H](CC(C)C)C(=O)N[C@H](C(N)=O)C(C)C (HELM PEPTIDE1{[O=C(/C=C/C(=O)[*:2])NCC(=O)NCC(=O)N[C@@H](Cc1ccccc1)C(=O)O].Q.L.L.V.[am]}$$$$V2.0)	Yes
CC[C@H](C)[C@H](NC(=O)[C@H](C)NC(=O)/C=C/C(=O)NCC(=O)NCC(=O)N[C@@H](Cc1ccccc1)C(=O)O)C(=O)N[C@H](C(=O)N[C@H](C(N)=O)C(C)C)C(C)C (HELM PEPTIDE1{[O=C(/C=C/C(=O)[*:2])NCC(=O)NCC(=O)N[C@@H](Cc1ccccc1)C(=O)O].A.I.V.V.[am]}$$$$V2.0)	No
CC(C)[C@H](NC(=O)[C@@H](NC(=O)[C@H](Cc1ccccc1)NC(=O)[C@H](Cc1ccccc1)NC(=O)/C=C/C(=O)N[C@@H](C)C(=O)NCC(=O)N[C@@H](Cc1ccccc1)C(=O)O)C(C)C)C(N)=O (HELM PEPTIDE1{[C[C@H](NC(=O)/C=C/C(=O)[*:2])C(=O)NCC(=O)N[C@@H](Cc1ccccc1)C(=O)O].F.F.V.V.[am]}$$$$V2.0)	No
CC[C@H](C)[C@H](NC(=O)[C@H](Cc1ccccc1)NC(=O)/C=C/C(=O)N[C@@H](C)C(=O)NCC(=O)N[C@@H](Cc1ccccc1)C(=O)O)C(=O)N[C@H](C(=O)N[C@H](C(N)=O)C(C)C)C(C)C (HELM PEPTIDE1{[C[C@H](NC(=O)/C=C/C(=O)[*:2])C(=O)NCC(=O)N[C@@H](Cc1ccccc1)C(=O)O].F.I.V.V.[am]}$$$$V2.0)	Yes
